# test-name: Rat in vivo CNS penetration: plasma, brain and CSF concentrations by LC-MS/MS
# test-settings: male, Sprague Dawley, plasma, po, 10 mg/kg, 10 mg/kg p.o., 4 h post-dose, unbound plasma, [Pl] x Pl Fu, read-out: [Plu]
result-type: concentration at 4 h

(Q) Quickly give me recorded concentration at 4 h for COc1cnc(C(=O)Nc2cc(F)c(F)c([C@]34CO[C@H](CF)[C@H]3CSC(N)=N4)c2)cn1
(A) 63 nM

(Q) Quickly give me recorded concentration at 4 h for COc1cnc(C(=O)Nc2ccc(F)c([C@]34CO[C@H](C(F)F)[C@H]3CSC(N)=N4)c2)cn1
(A) 32 nM

(Q) Quickly give me recorded concentration at 4 h for COc1cnc(C(=O)Nc2ccc(F)c([C@]34CO[C@H](CF)[C@H]3CSC(N)=N4)c2)cn1
(A) 163 nM

---

# test-name: Rat in vivo CNS penetration: plasma, brain and CSF concentrations by LC-MS/MS
# test-settings: male, Sprague Dawley, plasma, po, 10 mg/kg, 10 mg/kg p.o., 4 h post-dose, total plasma concentration, read-out: [Pl]
For each record, write down the corresponding concentration at 4 h.
Numbers only; they are read as nM.

(Q) Quickly give me recorded concentration at 4 h for COc1cnc(C(=O)Nc2ccc(F)c([C@]34CO[C@H](C(F)F)[C@H]3CSC(N)=N4)c2)cn1 [Example 3]
(A) 226

(Q) Quickly give me recorded concentration at 4 h for COc1cnc(C(=O)Nc2cc(F)c(F)c([C@]34CO[C@H](CF)[C@H]3CSC(N)=N4)c2)cn1 [Example 4]
(A) 482

(Q) Quickly give me recorded concentration at 4 h for COc1cnc(C(=O)Nc2ccc(F)c([C@]34CO[C@H](CF)[C@H]3CSC(N)=N4)c2)cn1 [Example 2]
(A) 645

---

# test-name: Rat in vivo CNS penetration: plasma, brain and CSF concentrations by LC-MS/MS
# test-settings: male, Sprague Dawley, CSF, po, 10 mg/kg, 10 mg/kg p.o., 6 h post-dose, read-out: CSF:Plu
result-type: Kp at 6 h

(Q) Quickly give me recorded Kp at 6 h for COc1cnc(C(=O)Nc2cc(F)c(F)c([C@]34CO[C@H](CF)[C@H]3CSC(N)=N4)c2)cn1
(A) 0.6

(Q) Quickly give me recorded Kp at 6 h for COc1cnc(C(=O)Nc2ccc(F)c([C@]34CO[C@H](C(F)F)[C@H]3CSC(N)=N4)c2)cn1
(A) 0.5

(Q) Quickly give me recorded Kp at 6 h for COc1cnc(C(=O)Nc2ccc(F)c([C@]34CO[C@H](CF)[C@H]3CSC(N)=N4)c2)cn1
(A) 0.7

---

# test-name: Rat in vivo CNS penetration: plasma, brain and CSF concentrations by LC-MS/MS
# test-settings: male, Sprague Dawley, brain, po, 10 mg/kg, 10 mg/kg p.o., 4 h post-dose, unbound brain, [Br] x Br Fu, read-out: [Bru]
result-type: concentration at 4 h (nM)
Numbers only; they are read as nM.

(Q) Quickly give me recorded concentration at 4 h for COc1cnc(C(=O)Nc2cc(F)c(F)c([C@]34CO[C@H](CF)[C@H]3CSC(N)=N4)c2)cn1
(A) 34

(Q) Quickly give me recorded concentration at 4 h for COc1cnc(C(=O)Nc2ccc(F)c([C@]34CO[C@H](C(F)F)[C@H]3CSC(N)=N4)c2)cn1
(A) 20

(Q) Quickly give me recorded concentration at 4 h for COc1cnc(C(=O)Nc2ccc(F)c([C@]34CO[C@H](CF)[C@H]3CSC(N)=N4)c2)cn1
(A) 88
